# Tested on: Staphylococcus aureus
# Measurement protocol: Antibacterial activity against methicillin-resistant Staphylococcus aureus ATCC 43300
# Assay type: functional
Measured MIC values are reported for all entries that follow.
Please state the figure in µg/mL; there is no need to write the unit.

COc1ccc2[nH]c3c(CC[C@H](C)[C@H]4CC[C@H]5[C@@H]6[C@H](O)C[C@@H]7C[C@H](O)CC[C@]7(C)[C@H]6C[C@H](O)[C@]45C)[n+](Cc4ccc(Br)cc4)ccc3c2c1.[Br-]	2
CC[n+]1ccc2c([nH]c3ccc(OC)cc32)c1CC[C@H](C)[C@H]1CC[C@H]2[C@@H]3[C@H](O)C[C@@H]4C[C@H](O)CC[C@]4(C)[C@H]3CC[C@]12C.[Br-]	2

Let's switch to this compound now.
Request body: readout MIC, system Staphylococcus aureus, query "CCC[n+]1ccc2c([nH]c3ccc(OC)cc32)c1CC[C@H](C)[C@H]1CC[C@H]2[C@@H]3[C@H](O)C[C@@H]4C[C@H](O)CC[C@]4(C)[C@H]3CC[C@]12C.[Br-]" . Return the value. 2

The origin of these recorded values is ChEMBL document CHEMBL6078723.
